system: Zymoseptoria tritici field and genetically modified strains; experiment: Liquid culture assay for fungicide sensitivity determination; type: cell-based; settings: Zymoseptoria tritici, read-out: EC50 (nM) Mean, strain IPO323; liquid culture sensitivity
Lab note: anything with EC50 below 200 nM is marked met; values at 200 nM or higher are marked not met.

Illustrative cases are given below, each with its answer.
>  <query-smiles>
CC1=C(C(=O)Nc2ccccc2)SCCO1

>  <assigned-label>
not met

$$$$
>  <query-smiles>
C[C@@H](Cc1ccc(Cl)cc1Cl)NC(=O)c1cn(C)nc1C(F)F

>  <assigned-label>
met

$$$$
>  <query-smiles>
Cn1cc(C(=O)NCCc2ccc(Cl)cc2Cl)c(C(F)F)n1

>  <assigned-label>
not met

$$$$
>  <query-smiles>
CON(C(=O)c1cn(C)nc1C(F)F)[C@@H](C)Cc1c(Cl)cc(Cl)cc1Cl

>  <assigned-label>
met

$$$$
>  <query-smiles>
O=C(Nc1ccccc1-c1ccc(Cl)cc1)c1cccnc1Cl

>  <assigned-label>
not met

$$$$

Here's the next entry for you.
Decide: EC50 of "O=C(NCCc1ncc(C(F)(F)F)cc1Cl)c1ccccc1C(F)(F)F" strictly below 200 nM?
not met

---

target: C_A84I-SQR (SDHC_A84I), IPO323_Flu21 mitochondria (Zymoseptoria tritici, UniProt F9X9V6+F9XH52+O42772, A84I); experiment: Succinate-quinone (SQR) SDHI sensitivity assay on purified mitochondria, IPO323_Flu21; conditions: mitochondria of UV mutant IPO323_Flu21; mean of three ± SD
Consider the following compounds; for each one, report its IC50.
Answers are plain numbers, in nM.

>  <compound>
CC(C)C1C2CCC1c1c(NC(=O)c3cn(C)nc3C(F)F)cccc12 (stereo not shown) [Isopyrazam]

>  <IC50, nM>
5.2

$$$$
>  <compound>
Cn1cc(C(=O)Nc2cccc3c2[C@@H]2CC[C@H]3C2=C(Cl)Cl)c(C(F)F)n1 (racemic) [Benzovindiflupyr]

>  <IC50, nM>
1

$$$$
>  <compound>
Cn1cc(C(=O)Nc2ccc(F)cc2-c2ccc(Cl)c(Cl)c2)c(C(F)F)n1 [Bixafen]

>  <IC50, nM>
3.2

$$$$

For the compound shown here, Cn1cc(C(=O)Nc2ccccc2-c2cc(F)c(F)c(F)c2)c(C(F)F)n1 [Fluxapyroxad] , give the reported IC50.
5.1

---

biological target: altC-SQR (altC) of D024 SDHC1 KO mitochondria (Zymoseptoria tritici, UniProt A0A1X7RQW2+F9X9V6+O42772); test: Succinate-quinone (SQR) SDHI sensitivity assay on purified mitochondria, 06STD024 SDHC1 KO; assay type: biochemical; settings: IC50 ratio compared to IPO323 values
Sequence (A0A1X7RQW2 36-181, one chain of several): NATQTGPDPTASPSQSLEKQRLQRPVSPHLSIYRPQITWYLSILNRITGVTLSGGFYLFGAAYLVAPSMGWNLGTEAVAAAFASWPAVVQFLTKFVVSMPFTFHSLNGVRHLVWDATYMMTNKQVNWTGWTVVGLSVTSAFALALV
Would you kindly list RF (resistance factor), D024 SDHC1 KO (altC) for each of these molecules?
Numbers only.

Worked examples, 4 molecules total:
>  <molecule>
CC(C)C1C2CCC1c1c(NC(=O)c3cn(C)nc3C(F)F)cccc12 (centres unmarked)

>  <measured-result>
2.9

$$$$
>  <molecule>
Cn1cc(C(=O)Nc2ccccc2-c2cc(F)c(F)c(F)c2)c(C(F)F)n1

>  <measured-result>
0.7

$$$$
>  <molecule>
CC(C)CC(C)c1sccc1NC(=O)c1cn(C)nc1C(F)(F)F (centres unmarked)

>  <measured-result>
1.2

$$$$
>  <molecule>
Cn1cc(C(=O)Nc2ccc(F)cc2-c2ccc(Cl)c(Cl)c2)c(C(F)F)n1

>  <measured-result>
1.5

$$$$

What measured RF (resistance factor), D024 SDHC1 KO (altC) goes with Cn1cc(C(=O)Nc2cccc3c2[C@@H]2CC[C@H]3C2=C(Cl)Cl)c(C(F)F)n1 (racemic) ?
0.9

---

tested on: Zymoseptoria tritici field and genetically modified strains; test: Liquid culture assay for fungicide sensitivity determination; format: cell-based; details: strain Flu21 (SDHC1_A84I); liquid culture sensitivity; read-out: EC50 (nM) Mean
measured-endpoint: EC50 (nM)
One number for each entry, in nM.

Examples with answers:
>  <compound>
Cn1cc(C(=O)Nc2ccc(F)cc2-c2ccc(Cl)c(Cl)c2)c(C(F)F)n1

>  <measured-endpoint>
EC50

>  <unit-symbol>
nM

>  <measured-result>
959

$$$$
>  <compound>
Cn1cc(C(=O)Nc2cccc3c2[C@@H]2CC[C@H]3C2=C(Cl)Cl)c(C(F)F)n1 (racemic)

>  <measured-endpoint>
EC50

>  <unit-symbol>
nM

>  <measured-result>
927

$$$$
>  <compound>
CC(C)C1C2CCC1c1c(NC(=O)c3cn(C)nc3C(F)F)cccc12 (stereo not shown)

>  <measured-endpoint>
EC50

>  <unit-symbol>
nM

>  <measured-result>
785

$$$$

Consider now this further compound.
Item "Cn1cc(C(=O)Nc2ccccc2-c2cc(F)c(F)c(F)c2)c(C(F)F)n1" has what recorded EC50?
818

---

molecular target: WT-SQR (SDHC), IPO323 mitochondria (Zymoseptoria tritici, UniProt F9X9V6+F9XH52+O42772); assay: Succinate-quinone (SQR) SDHI sensitivity assay on purified mitochondria, IPO323; format: biochemical
Sequence (F9WWR1 entry or part of it): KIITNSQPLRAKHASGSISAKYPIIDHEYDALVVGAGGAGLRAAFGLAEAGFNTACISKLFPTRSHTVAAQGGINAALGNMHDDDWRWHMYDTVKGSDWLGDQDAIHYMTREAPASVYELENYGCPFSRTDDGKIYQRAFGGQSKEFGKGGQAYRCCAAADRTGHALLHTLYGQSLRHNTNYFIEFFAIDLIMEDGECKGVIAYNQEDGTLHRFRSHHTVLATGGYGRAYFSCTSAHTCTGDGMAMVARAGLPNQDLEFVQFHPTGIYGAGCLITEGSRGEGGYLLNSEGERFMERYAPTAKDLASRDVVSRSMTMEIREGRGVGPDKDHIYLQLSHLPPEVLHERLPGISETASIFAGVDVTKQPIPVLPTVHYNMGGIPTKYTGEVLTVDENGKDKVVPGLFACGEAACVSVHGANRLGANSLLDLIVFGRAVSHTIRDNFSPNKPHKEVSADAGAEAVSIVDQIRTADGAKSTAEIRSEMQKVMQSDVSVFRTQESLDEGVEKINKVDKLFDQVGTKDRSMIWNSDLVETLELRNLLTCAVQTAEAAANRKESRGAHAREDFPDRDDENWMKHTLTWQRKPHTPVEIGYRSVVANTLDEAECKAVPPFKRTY
Sequence (F9X9V6 entry or part of it): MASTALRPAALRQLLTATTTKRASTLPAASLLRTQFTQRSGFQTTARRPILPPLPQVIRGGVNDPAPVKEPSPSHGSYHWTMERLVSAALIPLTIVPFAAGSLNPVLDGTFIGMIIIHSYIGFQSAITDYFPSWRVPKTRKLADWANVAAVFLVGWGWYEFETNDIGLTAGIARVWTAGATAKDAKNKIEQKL
Sequence (O42772 19-297): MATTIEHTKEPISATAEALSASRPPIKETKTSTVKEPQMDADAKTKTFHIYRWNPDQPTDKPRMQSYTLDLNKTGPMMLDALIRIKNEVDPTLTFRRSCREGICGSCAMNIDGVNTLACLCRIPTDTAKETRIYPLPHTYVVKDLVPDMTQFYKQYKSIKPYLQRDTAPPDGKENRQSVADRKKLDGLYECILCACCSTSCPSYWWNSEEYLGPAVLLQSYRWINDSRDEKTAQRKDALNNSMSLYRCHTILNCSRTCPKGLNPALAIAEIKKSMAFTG
Sequence (F9XH52 entry or part of it): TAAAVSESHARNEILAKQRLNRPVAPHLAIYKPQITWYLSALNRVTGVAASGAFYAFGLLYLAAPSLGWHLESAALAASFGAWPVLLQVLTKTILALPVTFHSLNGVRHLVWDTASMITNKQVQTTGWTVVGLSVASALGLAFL
Would you mind telling me the reported IC50 of each entry?
One number for each entry, in nM.

>  <molecule>
Cc1cc(OC(C)C)ccc1C(=O)C(C)(C)NC(=O)c1sccc1C [Isofetamid]

>  <IC50, nM>
0.9

$$$$
>  <molecule>
CC(C)CC(C)c1sccc1NC(=O)c1cn(C)nc1C(F)(F)F (stereo not drawn) [Penthiopyrad]

>  <IC50, nM>
1.4

$$$$

// next entry
Look up IC50: CON(C(=O)c1cn(C)nc1C(F)F)[C@@H](C)Cc1ccc(Cl)cc1Cl [Compound 3]
0.7
